Value source: patent US20220204473A1

Test: PK assay in rat (intravenous injection and oral gavage)
Assay type: in vivo
Settings: plasma, 1 mg/kg; male SD rat, intravenous injection, 1 mpk; read-out: Clearance CL
measurement-kind: clearance
Write the quantity with the unit trailing the number.

Prompt line: Tell me measured clearance for COc1cc2nn([C@H]3C[C@H](CO)C3)cc2cc1NC(=O)c1cccc(C(F)(F)F)n1 please.
Response line: 21.9 mL/min/kg

Prompt line: Tell me measured clearance for COc1cc2nn([C@H]3CC[C@H](O)CC3)cc2cc1NC(=O)c1cccc(C(F)(F)F)n1 please.
Response line: 2.84 mL/min/kg

Prompt line: Tell me measured clearance for CN(C)c1cc2nn([C@H]3C[C@H](C(C)(C)O)C3)cc2cc1NC(=O)c1cccc(C(F)(F)F)n1 please.
Response line: 4.89 mL/min/kg

Prompt line: Tell me measured clearance for COc1cc2nn([C@H]3CC[C@](C)(O)CC3)cc2cc1NC(=O)c1cccc(C(F)(F)F)n1 please.
Response line: 5.14 mL/min/kg

Further cases:
Prompt line: Tell me measured clearance for COc1cc2nn([C@H]3CC[C@@](C)(O)CC3)cc2cc1NC(=O)c1cccc(C(F)(F)F)n1 please.
Response line: 3.74 mL/min/kg
